Form field: normalized growth (one value per entry).
- PROTOCOL_NOTES: chemical genetic growth profiling, strain panel (AID 1159580);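 further: tested at 20 µM; growth read once vehicle control cultures reached saturation at 30 °C; 1 = growth at the plate median or of vehicle wells; lower values mean less growth of the strain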
- CONDITION_SUMMARY: S. cerevisiae deletion strains, growth OD, locus YDL005C, strain med2, hits give low values
Hit rate of the full screen: of about 5,500 compounds, about 2,000 (36%) were called active. Not shown: some 18% with an inconclusive outcome. Some of the results follow.

COMPOUND	normalized growth
COc1cc(/C=C/C(=O)N2CCC=CC2=O)cc(OC)c1OC	1
COc1ccc2c(c1)[C@]13CCCC[C@H]1[C@H](C2)N(C)CC3	0.97
CC[C@H]1CN2CCc3cc(OC)c(OC)cc3C2C[C@@H]1CC1NCCc2cc(OC)c(OC)cc21 (some centres undefined)	0.988
COc1ccc2c(=O)ccoc2c1	1.02
CC(=O)OC[C@H]1O[C@@H](Oc2cc(OC(C)=O)c3c(=O)cc(-c4ccc(OC(C)=O)cc4)oc3c2)[C@H](OC(C)=O)[C@@H](OC(C)=O)[C@@H]1OC(C)=O	0.977
Cc1cc(C(C)(C)C)cc(C)c1CC1=NCCN1	1.01
COc1c2occc2c(OC)c2c(=O)cc(C)oc12	0.989
COc1ccc(-c2oc3ccccc3c(=O)c2O)cc1OC	0.915
CCCCCCCCCCCCCCCCCCOCC(O)CO (centres undefined)	0.989
COc1ccc(C(=O)c2ccccc2)c(O)c1O	0.971
COc1cc(O)cc(OC)c1OC	0.967
NCCc1cc(O)c(O)cc1O	1.01
O=c1[nH]cnc2c1ncn2C1O[C@H](CO)[C@@H](O)[C@H]1O (some centres undefined)	0.987
CN1CCN(CCC=C2c3ccccc3Sc3ccc(S(=O)(=O)N(C)C)cc32)CC1	0.996
OC(c1cc(C(F)(F)F)nc2c(C(F)(F)F)cccc12)C1CCCCN1 (centres undefined)	1.01
CCOc1ccc(C(=O)c2ccc(OC)c(O)c2O)cc1	1.05
CCOc1ccc(NC(C)=O)cc1	1.02
CC(=O)[C@@]1(O)CCC2C3CCC4=CC(=O)CC[C@]4(C)C3CC[C@@]21C (some centres undefined)	0.975
Cc1cc(C(C)(C)C)c(O)c(C)c1CC1=NCCN1	0.998
CN1CCN(CCCN2c3ccccc3Sc3ccc(C(F)(F)F)cc32)CC1	0.412
CCNc1nc(Cl)nc(NCC)n1	0.988
COc1ccc(C(=O)c2ccc(O)cc2)c(O)c1O	0.968
COc1ccc([C@H]2COc3c(ccc(O)c3OC)C2)c(OC)c1O	0.975
O=c1c(O)c(-c2ccc(O)c(O)c2)oc2cc(O)ccc12	0.987
